Target: JAK2 JH1 WT (T842-G1132) (Homo sapiens)
Construct: *JAK2 JH1 WT (T842-G1132) N-His60-avi-TEV; His6 (N); TEV cleavage site (N); purchased Biortus
Sequence (O60674 842-1132): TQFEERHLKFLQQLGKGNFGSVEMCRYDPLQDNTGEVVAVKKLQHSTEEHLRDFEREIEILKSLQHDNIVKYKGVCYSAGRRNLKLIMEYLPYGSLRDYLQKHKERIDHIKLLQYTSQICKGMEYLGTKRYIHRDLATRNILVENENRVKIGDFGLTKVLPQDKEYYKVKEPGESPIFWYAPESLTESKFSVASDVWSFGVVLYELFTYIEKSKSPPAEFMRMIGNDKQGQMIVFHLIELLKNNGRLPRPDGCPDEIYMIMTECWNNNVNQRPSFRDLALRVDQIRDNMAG
Assay: Surface Plasmon Resonance (SPR) binding assay, JAK2 JH1 domain
Conditions: SPR, JAK2 JH1 domain
OBSERVED_PROPERTY: Kd

Some solved entries appear below for comparison.
Ask | # get_value(readout= Kd, system= JAK2 JH1 WT (T842-G1132) (Homo sapiens)) for CNC(=O)c1nnc(NC(=O)C2CC2)cc1Nc1cccc(-c2ccc(C(=O)N(C)Cc3ccn(C)n3)nc2)c1OC
Reply | 5 to 100 µM

Ask | # get_value(readout= Kd, system= JAK2 JH1 WT (T842-G1132) (Homo sapiens)) for CNC(=O)c1nnc(NC(=O)C2CC2)cc1Nc1cccc(-c2cnn(C3CN(Cc4cccc(C(F)F)n4)C3)c2)c1OC
Reply | 5 to 100 µM

Ask | # get_value(readout= Kd, system= JAK2 JH1 WT (T842-G1132) (Homo sapiens)) for CNC(=O)c1nnc(NC(=O)C2CC2)cc1Nc1cccc(-c2ccc(C(=O)NCc3cccn(C)c3=O)c(C)c2)c1OC
Reply | 5 to 100 µM

Ask | # get_value(readout= Kd, system= JAK2 JH1 WT (T842-G1132) (Homo sapiens)) for CNC(=O)c1nnc(NC(=O)C2CC2)cc1Nc1cccc(-c2cnn(C3CN(Cc4cccc(F)n4)C3)c2)c1OC
Reply | 0.5 to 5 µM

Ask | # get_value(readout= Kd, system= JAK2 JH1 WT (T842-G1132) (Homo sapiens)) for [2H]C([2H])([2H])NC(=O)c1nnc(NC(=O)C2CC2)cc1Nc1cccc(-c2ccc(C(=O)N(C)Cc3cc(C#N)ccn3)nc2)c1OC
Reply | 5 to 100 µM

Further cases:
Ask | # get_value(readout= Kd, system= JAK2 JH1 WT (T842-G1132) (Homo sapiens)) for CNC(=O)c1nnc(NC(=O)C2CC2)cc1Nc1cccc(-c2cnc(C(=O)N(C)Cc3cccnn3)c(F)c2)c1OC
Reply | 5 to 100 µM

Ask | # get_value(readout= Kd, system= JAK2 JH1 WT (T842-G1132) (Homo sapiens)) for CNC(=O)c1nnc(NC(=O)C2CC2)cc1Nc1cccc(-c2ccc(C(=O)N(C)Cc3ccnn3C)nc2)c1OC
Reply | 5 to 100 µM
